# System: 0.5% acetic acid induced contorsions in NMRI mice
# Protocol text: Peripheral analgesic activity: 0.5% acetic acid induced contorsions in NMRI mice
# Format: in vivo
# Reported conditions: male NMRI mice, n = 10, 100 mg/kg p.o., 0.5% acetic acid i.p. after 30 minutes, observed half an hour; mean ± s.e.; control 27.1 ± 4.3; Duncan Kramer test p < 0.05
Give measured No contorsions (X ± s.e.) for each item. Keep answers brief.

Given the entry CC(=O)Oc1ccccc1C(=O)O [Acetylsalicylic acid, reference compound] , what No contorsions (X ± s.e.) was observed with 0.5% acetic acid induced contorsions in NMRI mice?
17 ± 3.5

Also `O=C(O)[C@H](c1ccccc1)n1cccc1` ?
6.4 ± 1.9

Now the same for `O=C(O)[C@@H](c1ccccc1)n1cccc1`
7.9 ± 2.6

Another: O=C(O)C(c1ccccc1)n1cccc1 (racemic)
5.5 ± 1.8

Now give it for O=C(O)C(c1ccc(O)cc1)n1cccc1 (racemic) too.
7.5 ± 2.2

* * *

# Tested on: ADP induced platelet aggregation
# Protocol text: "Ex vivo" platelet anti-aggregation activity in rats (ADP induced platelet aggregation, Born aggregometer)
# Design: species or system Wistar rats, ITA 177 SPF
# Reported conditions: 100 mg/kg p.o., n = 5, blood drawn 5 hours after administration, control 86.4 ± 2.15, Duncan Kramer test p < 0.05
# Experimental: Acetylsalicyclic acid at a dose level of 100 mg/kg p.o. was used as standard. The products to be tested were administered at the maximum dose of 200 mg/kg, p.o. Both the standard and the products were administered dissolved or suspended in a 10 ml/kg Tween solution. […] The % aggregation was calculated measuring the difference in mm in the recorder between the initial aggregation stage and the height of the specimen curve 6 minutes after the onset of aggregation. […]
The label is met for Platelet aggregation % below 30% and not met for Platelet aggregation % equal to or exceeding 30%.

Please determine if CCCCC1C(=O)N(c2ccccc2)N(c2ccccc2)C1=O [Phenylbutazone, reference compound] is below 30% in terms of Platelet aggregation %.
not met

Can you handle CC(=O)Oc1ccccc1C(=O)O [Acetylsalicylic acid, reference compound] next?
met

Here is the next compound: `O=C(O)Cn1cccc1`
not met

Same read-out for CCOC(=O)C(c1ccccc1)n1cccc1 (racemic) ?
not met

Same lookup for O=C(O)C(c1ccccc1)n1cccc1 (racemic) , please.
met

* * *

Would you kindly list Platelet aggregation, % inhibition for each of these compounds?
# Test system: ADP induced platelet aggregation
# Protocol text: "Ex vivo" platelet anti-aggregation activity in rats (ADP induced platelet aggregation, Born aggregometer)
# Design: species or system Wistar rats, ITA 177 SPF
# Reported conditions: 100 mg/kg p.o., n = 5, blood drawn 5 hours after administration, relative to control
Give just the number in %; leave the unit off.

Which Platelet aggregation, % inhibition value is on record for O=C(O)C(c1ccccc1)n1cccc1 (racemic) ?
70.7

Another compound to check: `O=C(O)Cn1cccc1`
27.0

Field entry: CC(=O)Oc1ccccc1C(=O)O [Acetylsalicylic acid, reference compound]
76.7

Quick one: CCOC(=O)C(c1ccccc1)n1cccc1 (racemic)
51.4

One more compound: CCCCC1C(=O)N(c2ccccc2)N(c2ccccc2)C1=O [Phenylbutazone, reference compound]
32.6
